SYSTEM TESTED: T1, recombinant human GM-CSF (human, UniProt P04141 18-144)
T1 construct: also called rhGM-CSF; CSF2
T1 sequence (P04141 18-144 limits assumed): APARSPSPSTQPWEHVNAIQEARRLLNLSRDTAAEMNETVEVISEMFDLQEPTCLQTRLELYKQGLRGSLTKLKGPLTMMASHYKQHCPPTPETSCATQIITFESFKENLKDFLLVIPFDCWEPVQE
PROTOCOL TEXT: Gator, Coating Ab
QUANTITY MEASURED: Kd (nM)

binder="1D2 SDR mutant K54G/V32R (antibody, IgG1, V domains shown, also called 54G/32R) VH: QVQLVQSGAEVKKPGASVKVSCEASGYTFTDKYLHWVRQAPGQGLEWMAWINPGSGGTFYAQNFKGRVTVTRDTSINTAYLELTSLRLDDTSTYYCARGRDYYDQGAADLWGQGTMVTVSS VL: DIQLTQSPSSLSASVGDRVTITCRASQGINSRLAWYQQKPGKAPKLLLYAASKLESGVPSRFSGSGSGTDYTLTISSLQPEDFGTYYCQQYYSPVRTFGQGTKVEIKR" value_reported=0.929
binder="1D2 SDR mutant Y103R/V32R (antibody, IgG1, V domains shown) VH: QVQLVQSGAEVKKPGASVKVSCEASGYTFTDKYLHWVRQAPGQGLEWMAWINPKSGGTFYAQNFKGRVTVTRDTSINTAYLELTSLRLDDTSTYYCARGRDYRDQGAADLWGQGTMVTVSS VL: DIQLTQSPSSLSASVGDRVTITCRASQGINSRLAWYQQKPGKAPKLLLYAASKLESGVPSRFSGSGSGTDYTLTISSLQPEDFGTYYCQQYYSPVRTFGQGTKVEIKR" value_reported=4.14
binder="1D2 SDR mutant Y103N/V32R (antibody, IgG1, V domains shown) VH: QVQLVQSGAEVKKPGASVKVSCEASGYTFTDKYLHWVRQAPGQGLEWMAWINPKSGGTFYAQNFKGRVTVTRDTSINTAYLELTSLRLDDTSTYYCARGRDYNDQGAADLWGQGTMVTVSS VL: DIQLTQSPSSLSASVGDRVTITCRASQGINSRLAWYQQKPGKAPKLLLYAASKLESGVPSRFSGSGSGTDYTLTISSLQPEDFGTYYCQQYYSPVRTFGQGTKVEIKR" value_reported=1.44
binder="antibody 1D2 (antibody, V domains shown, also called 1D2-WT; WT) VH: QVQLVQSGAEVKKPGASVKVSCEASGYTFTDKYLHWVRQAPGQGLEWMAWINPKSGGTFYAQNFKGRVTVTRDTSINTAYLELTSLRLDDTSTYYCARGRDYYDQGAADLWGQGTMVTVSS VL: DIQLTQSPSSLSASVGDRVTITCRASQGINSVLAWYQQKPGKAPKLLLYAASKLESGVPSRFSGSGSGTDYTLTISSLQPEDFGTYYCQQYYSPVRTFGQGTKVEIKR" value_reported=0.177
